// Ki lookup, one value per entry
# experimental_system: 5-HT3 (Homo sapiens, UniProt P46098)
# method: Compound affinity for the human 5-HT3 receptor (Assay B), SPA radioligand binding with [9-methyl-3H]BRL-43694
# Design: purchased Perkin Elmer
# condition_details: Assay B (method B unless otherwise annotated); read-out: 5-HT3 Ki
Counter-ions that a name gives are not always drawn.

Please review the entries below; each comes with its answer.
{"compound": "CN1CCN(c2nc3c(C(=O)N[C@@H]4CN5CCC4CC5)cccc3o2)CC1 [Example 2, Dihydrochloride]", "experimental_system": "5-HT3 (Homo sapiens, UniProt P46098)", "Ki": "382 nM"}
{"compound": "C[C@H]1CN(Cc2ccccc2)C(=O)[C@H](C)N1c1nc2c(C(=O)N[C@@H]3CN4CCC3CC4)cccc2o1 [Example 142, Hydrochloride]", "experimental_system": "5-HT3 (Homo sapiens, UniProt P46098)", "Ki": "11.5 nM"}
{"compound": "CN(C)c1nc2c(C(=O)N[C@H]3C[C@H]4CCC[C@@H](C3)N4C)cccc2o1 [Example 7, Hydrochloride]", "experimental_system": "5-HT3 (Homo sapiens, UniProt P46098)", "Ki": "6.1 nM"}

Now take the following compound into account.
5-HT3 (Homo sapiens, UniProt P46098) / Ki / COCCNc1nc2c(C(=O)N[C@H]3C[C@H]4CCC[C@@H](C3)N4C)cccc2o1 [Example 38, Hydrochloride] : value?
7.5 nM

---

# experimental_system: UniProt:P46098
# method: Compound affinity for the human 5-HT3 receptor (Assay B), SPA radioligand binding with [9-methyl-3H]BRL-43694
# Design: purchased Perkin Elmer
# condition_details: Assay B (method B unless otherwise annotated); read-out: 5-HT3 Ki
Structures can show the parent of a compound that is named as a salt.
// Ki lookup, one value per entry

Please review the entries below; each comes with its answer.
{"molecule": "C[C@H]1CNC[C@H](C)N1c1nc2c(C(=O)NC3CC4CCCC(C3)N4C)ccc(F)c2o1 (stereo partly shown) [Example 107, hydrochloride]", "Ki": "14.2 nM"}
{"molecule": "CC(C)C[C@H]1CNCCN1c1nc2c(C(=O)NC3CC4CCCC(C3)N4C)cccc2o1 (stereo partly shown) [Example 77, Hydrochloride]", "Ki": "6.4 nM"}
{"molecule": "Cc1cc(C(=O)N[C@H]2C[C@H]3CCC[C@@H](C2)N3C)c2nc(N)oc2c1 [Example 129, Hydrochloride]", "Ki": "10.7 nM"}

Now take the following molecule into account.
# Ki lookup, item CNc1nc2c(C(=O)NC3CN4CCC3CC4)cccc2o1 (stereo not shown) [Example 113, Hydrochloride]
14.5 nM

---

# experimental_system: 5-HT3 (Homo sapiens, UniProt P46098)
# Sequence (P46098 24-478): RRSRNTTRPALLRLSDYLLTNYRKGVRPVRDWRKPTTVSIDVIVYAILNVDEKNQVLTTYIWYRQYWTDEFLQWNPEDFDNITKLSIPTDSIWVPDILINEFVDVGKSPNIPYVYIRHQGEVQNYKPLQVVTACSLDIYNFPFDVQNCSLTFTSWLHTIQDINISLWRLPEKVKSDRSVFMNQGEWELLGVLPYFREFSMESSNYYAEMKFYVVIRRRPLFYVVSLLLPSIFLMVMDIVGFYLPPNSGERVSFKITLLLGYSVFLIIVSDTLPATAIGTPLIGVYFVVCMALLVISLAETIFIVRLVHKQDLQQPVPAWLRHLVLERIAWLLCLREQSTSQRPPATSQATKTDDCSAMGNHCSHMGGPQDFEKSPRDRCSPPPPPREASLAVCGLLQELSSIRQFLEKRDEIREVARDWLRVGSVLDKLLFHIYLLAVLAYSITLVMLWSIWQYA
# method: Compound affinity for the human 5-HT3 receptor (Assay B), SPA radioligand binding with [9-methyl-3H]BRL-43694
# Parameters: purchased Perkin Elmer
# condition_details: Assay B (method B unless otherwise annotated); read-out: 5-HT3 Ki
Counter-ions that a name gives are not always drawn.
// pKi lookup, one value per entry
pKi is defined as minus the log10 of a concentration measured in mol/L.

Please review the entries below; each comes with its answer.
{"compound": "O=C(N[C@@H]1CN2CCC1CC2)c1cccc2oc(Nc3ccccc3)nc12 [Example 6, Hydrochloride]", "experimental_system": "5-HT3 (Homo sapiens, UniProt P46098)", "pKi": 8.09}
{"compound": "CN1[C@@H]2CCC[C@H]1C[C@@H](NC(=O)c1cccc3oc(Nc4ccccc4)nc13)C2 [Example 5, Hydrochloride]", "experimental_system": "5-HT3 (Homo sapiens, UniProt P46098)", "pKi": 8.20}
{"compound": "C[C@H]1COCCN1c1nc2c(C(=O)NC3CC4CCCC(C3)N4C)cc(Cl)cc2o1 (stereo partly shown) [Example 106, Hydrochloride]", "experimental_system": "5-HT3 (Homo sapiens, UniProt P46098)", "pKi": 7.90}

# pKi lookup, item C[C@H]1CN(C)CCN1c1nc2c(C(=O)NC3CC4CCCC(C3)N4C)cc(Cl)cc2o1 (stereo partly shown) [Example 63, Hydrochloride]
7.79

Likewise for C[C@H]1CNCCN1c1nc2c(C(=O)N[C@H]3C[C@H]4CCC[C@@H](C3)N4C)cccc2o1 [Example 41a, Hydrochloride] ?
7.85

Likewise for CC[C@H]1CNCCN1c1nc2c(C(=O)NC3CC4CCCC(C3)N4C)cccc2o1 (stereo partly shown) [Example 84, Hydrochloride] ?
7.95

Likewise for CN(C)c1nc2c(C(=O)N[C@@H]3CN4CCC3CC4)cc(Cl)cc2o1 [Example 108, Hydrochloride] ?
7.84

Likewise for CN1C2CCCC1CC(NC(=O)c1cccc3oc(N4CCNC[C@@H]4C(C)(C)C)nc13)C2 (stereo partly shown) [Example 96, Hydrochloride] ?
8.12

Likewise for CN1[C@@H]2CCC[C@H]1C[C@@H](NC(=O)c1cccc3oc(N4CCOCC4c4ccccc4)nc13)C2 (mixture of isomers) [Example 19, Hydrochloride] ?
7.77

Likewise for COCCCNc1nc2c(C(=O)NC3CC4CCCC(C3)N4C)cccc2o1 (stereo not shown) [Example 39, Hydrochloride] ?
7.88
